# condition: in ethyl acetate, 328.15 K
The entries below come with measured solubility (mole fraction) values attached.
When you answer, write just the number.

Solved cases below.
COc1c(NS(=O)(=O)c2ccc(C)cc2)cc(-c2ccc3ncnc(N4CCOCC4)c3c2)cc1C(N)=O :: 0.000656
COc1c(NS(=O)(=O)c2ccc(F)cc2)cc(-c2ccc3nccc(N4CCOCC4)c3c2)cc1C(N)=O :: 0.000183

We now examine a further compound.
What value of measured solubility (mole fraction) is listed for COc1c(NS(=O)(=O)c2ccc(F)cc2)cc(-c2ccc3ncnc(N4CCOCC4)c3c2)cc1C(N)=O ?
0.000239

###

The entries below come with measured solubility (mole fraction) values attached.
# condition: in methanol, 293.15 K
When you answer, write just the number.

COc1c(NS(=O)(=O)c2ccc(F)cc2)cc(-c2ccc3nccc(N4CCOCC4)c3c2)cc1C(N)=O :: 0.000298
COc1c(NS(=O)(=O)c2ccc(C)cc2)cc(-c2ccc3ncnc(N4CCOCC4)c3c2)cc1C(N)=O :: 0.000873

We now examine a further compound.
What value of measured solubility (mole fraction) is listed for COc1c(NS(=O)(=O)c2ccc(F)cc2)cc(-c2ccc3ncnc(N4CCOCC4)c3c2)cc1C(N)=O ?
0.000301

###

# condition: in ethyl acetate, 323.15 K
The entries below come with measured solubility (mole fraction) values attached.

COc1c(NS(=O)(=O)c2ccc(C)cc2)cc(-c2ccc3ncnc(N4CCOCC4)c3c2)cc1C(N)=O :: 0.000535
COc1c(NS(=O)(=O)c2ccc(F)cc2)cc(-c2ccc3nccc(N4CCOCC4)c3c2)cc1C(N)=O :: 0.000183

What value of measured solubility (mole fraction) is listed for COc1c(NS(=O)(=O)c2ccc(F)cc2)cc(-c2ccc3ncnc(N4CCOCC4)c3c2)cc1C(N)=O ?
0.00022

###

The entries below come with measured solubility (mole fraction) values attached.
# condition: in acetone, 293.15 K
When you answer, write just the number.

Solved cases below.
COc1c(NS(=O)(=O)c2ccc(F)cc2)cc(-c2ccc3ncnc(N4CCOCC4)c3c2)cc1C(N)=O :: 0.000317
COc1c(NS(=O)(=O)c2ccc(C)cc2)cc(-c2ccc3ncnc(N4CCOCC4)c3c2)cc1C(N)=O :: 0.000707

What value of measured solubility (mole fraction) is listed for COc1c(NS(=O)(=O)c2ccc(F)cc2)cc(-c2ccc3nccc(N4CCOCC4)c3c2)cc1C(N)=O ?
0.000638

###

# condition: in methanol, 318.15 K
The entries below come with measured solubility (mole fraction) values attached.

Solved cases below.
COc1c(NS(=O)(=O)c2ccc(F)cc2)cc(-c2ccc3ncnc(N4CCOCC4)c3c2)cc1C(N)=O :: 0.00102
COc1c(NS(=O)(=O)c2ccc(C)cc2)cc(-c2ccc3ncnc(N4CCOCC4)c3c2)cc1C(N)=O :: 0.00183

We now examine a further compound.
What value of measured solubility (mole fraction) is listed for COc1c(NS(=O)(=O)c2ccc(F)cc2)cc(-c2ccc3nccc(N4CCOCC4)c3c2)cc1C(N)=O ?
0.000666

###

# condition: in methanol, 308.15 K
measurement_type: solubility (mole fraction)
When you answer, write just the number.

COc1c(NS(=O)(=O)c2ccc(F)cc2)cc(-c2ccc3nccc(N4CCOCC4)c3c2)cc1C(N)=O :: 0.000473
COc1c(NS(=O)(=O)c2ccc(F)cc2)cc(-c2ccc3ncnc(N4CCOCC4)c3c2)cc1C(N)=O :: 0.000613

We now examine a further molecule.
What value of measured solubility (mole fraction) is listed for COc1c(NS(=O)(=O)c2ccc(C)cc2)cc(-c2ccc3ncnc(N4CCOCC4)c3c2)cc1C(N)=O ?
0.00123
